Structures can show the parent of a compound that is named as a salt.
Target or system human histamine H1 receptor (Homo sapiens): recorded Ki listed per item.
Numeric only. Scale: nM

Examples from the recorded data:
Cc1noc(-c2csc(OCCCN3CCN(c4nsc5ccccc45)CC3)n2)n1 [compound 12, oxalate] ... 4.1
c1ccc2c(N3CCN(CCCOc4ccc(-c5cnco5)cn4)CC3)nsc2c1 [compound 22, oxalate] ... 1.8
Cc1nnc(-c2csc(OCCCN3CCN(c4nsc5ccccc45)CC3)n2)o1 [Example-2, oxalate] ... 9.9

Provide the documented Ki with human histamine H1 receptor (Homo sapiens) as the system for Cc1nc(-c2csc(OCCCN3CCN(c4nsc5ccccc45)CC3)n2)no1 [compound 10, oxalate]
Sequence (P35367 whole entry): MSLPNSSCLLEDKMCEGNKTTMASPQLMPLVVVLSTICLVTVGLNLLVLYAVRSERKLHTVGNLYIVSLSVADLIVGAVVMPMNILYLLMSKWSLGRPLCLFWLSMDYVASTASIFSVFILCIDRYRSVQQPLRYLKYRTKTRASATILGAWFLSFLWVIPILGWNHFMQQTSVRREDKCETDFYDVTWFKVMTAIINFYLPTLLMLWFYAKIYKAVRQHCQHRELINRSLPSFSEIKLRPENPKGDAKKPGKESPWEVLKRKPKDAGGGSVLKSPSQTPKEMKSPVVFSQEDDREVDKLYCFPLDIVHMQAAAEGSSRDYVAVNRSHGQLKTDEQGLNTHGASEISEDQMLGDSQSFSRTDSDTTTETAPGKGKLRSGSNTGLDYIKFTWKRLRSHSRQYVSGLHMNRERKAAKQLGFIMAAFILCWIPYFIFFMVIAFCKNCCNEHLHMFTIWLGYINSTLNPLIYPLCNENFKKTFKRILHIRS
4.2

Provide the documented Ki with human histamine H1 receptor (Homo sapiens) as the system for Cc1nnc(-c2csc(OCCCN3CCN(c4nsc5ccccc45)CC3)n2)o1 [Example-1]
8.8

Provide the documented Ki with human histamine H1 receptor (Homo sapiens) as the system for Cc1nnc(-c2csc(OCCCN3CCC(c4noc5cc(F)ccc45)CC3)n2)o1 [compound 24, oxalate]
3.5
